tested on: Borer; assay: Killing efficacy test against agricultural pests: borer test (leaf dip); assay type: in vivo; conditions: 0.125 mg/L, after 72 h
Entries annotated with measured Corrected Mortality Rate (%)
A number alone suffices; assume %.

# Corrected Mortality Rate (%) lookup, item Cc1cc(C2=NOC(c3cc(Cl)c(Cl)c(C(F)(F)F)c3)(C(F)(F)F)C2)ccc1C(=O)NCC(=O)NC1(C(F)(F)F)CC1 (stereo not shown) [Example 029]
0

Please give the measured Corrected Mortality Rate (%) for this compound: Cc1cc(C2=NO[C@@](c3cc(Cl)cc(C(F)(F)F)c3)(C(F)(F)F)C2)ccc1C(=O)NCC(=O)NC1(C(F)(F)F)CC1 [Example 008]
2

Given the compound Cc1cc(C2=NO[C@@](c3cc(Cl)cc(Cl)c3)(C(F)(F)F)C2)ccc1C(=O)NCC(=O)NC1(C(F)(F)F)CC1 [Example 011] , what is its reported Corrected Mortality Rate (%)?
29

API: the following record is the query input.
Entry Cc1cc(C2=NOC(c3cc(C(F)(F)F)cc(C(F)(F)F)c3)(C(F)(F)F)C2)ccc1C(=O)NCC(=O)NC1(C(F)(F)F)CC1 (stereo not shown) [Example 030] : reported Corrected Mortality Rate (%) = ?
30

====

Listing of entries alongside the reported Cmax.
experiment: In vivo pharmacokinetic evaluation in mice; parameters: species or system ICR mice; details: ICR, mouse, PO (30 mg/kg), plasma, read-out: Cmax
Could you give me the number in ng/mL? Just the number is fine.

Would you kindly share the measured Cmax for Cc1cc(C2=NOC(c3cc(Cl)cc(Cl)c3)(C(F)(F)F)C2)ccc1C(=O)NCC(=O)NC1CC1 (stereo not drawn) [Example 39 (Comparative Example 1), reference compound] ?
12300

Query (compound): `Cc1cc(C2=NO[C@@](c3cc(Cl)cc(Cl)c3)(C(F)(F)F)C2)ccc1C(=O)NCC(=O)NC1(C(F)(F)F)CC1` ; field requested: Cmax
15900

State the recorded Cmax for this entry: `Cc1cc(C2=NO[C@@](c3cc(Cl)cc(C(F)(F)F)c3)(C(F)(F)F)C2)ccc1C(=O)NCC(=O)NC1(C(F)(F)F)CC1`
15300

====

# half-life per record follows
assay: In vivo pharmacokinetic evaluation in mice; set-up: species or system ICR mice; conditions: ICR, mouse, IV (6 mg/kg), plasma
Give the quantity in h, number only.

Check out these entries, answers already filled in.
Requested field: half-life. Item: `Cc1cc(C2=NO[C@@](c3cc(Cl)cc(Cl)c3)(C(F)(F)F)C2)ccc1C(=O)NCC(=O)NC1(C(F)(F)F)CC1`
20

Fill blank: measured half-life of the molecule Cc1cc(C2=NOC(c3cc(Cl)cc(Cl)c3)(C(F)(F)F)C2)ccc1C(=O)NCC(=O)NC1CC1 (stereo not drawn) [Example 39 (Comparative Example 1), reference compound] is ____.
12.3

Could you now consider this next molecule?
Consider the molecule `Cc1cc(C2=NO[C@@](c3cc(Cl)cc(C(F)(F)F)c3)(C(F)(F)F)C2)ccc1C(=O)NCC(=O)NC1(C(F)(F)F)CC1` and give its measured half-life.
37.6

====

assay: In vivo pharmacokinetic evaluation in mice; set-up: species or system ICR mice; details: ICR, mouse, IV (6 mg/kg), plasma
METRIC: clearance

Consider the compound Cc1cc(C2=NOC(c3cc(Cl)cc(Cl)c3)(C(F)(F)F)C2)ccc1C(=O)NCC(=O)NC1CC1 (stereo not drawn) [Example 39 (Comparative Example 1), reference compound] and give its measured clearance.
2.06 mL/min/kg

Consider the compound shown here: Cc1cc(C2=NO[C@@](c3cc(Cl)cc(Cl)c3)(C(F)(F)F)C2)ccc1C(=O)NCC(=O)NC1(C(F)(F)F)CC1 [Example 011] What is its recorded clearance?
1.18 mL/min/kg

For the compound Cc1cc(C2=NO[C@@](c3cc(Cl)cc(C(F)(F)F)c3)(C(F)(F)F)C2)ccc1C(=O)NCC(=O)NC1(C(F)(F)F)CC1 [Example 008] , what clearance is on record?
0.713 mL/min/kg

Hello, the source for this data is patent EP4741380A1, in case you need it.
